Data origin: patent US20160185837A1

# Lookup of reported cAMP EC50 keyed by entry
# target_entity: human GLP-1 receptor (human, UniProt P43220 24-463)
# measurement_protocol: cell-based or functional assay
Ends that are not written are not given here.
Give the value in nM but do not write nM after it.

1) YSEGTFTSDYSKLLEEEAVRLFIEWLVKGPGGGGGSATHTCPPCPAPEF (Fc fusion, cysteine pairing not given here; also: fused to IgG1-TM Fc) [IP234] :: 0.74

cAMP EC50 for IP370 (Fc fusion) YSEGTFTSLYSKLKEEEAVRLFIEWLLAGGGGGGSGGGGSGGGGSGGGGSATHTCPPC is 0.62

Reported cAMP EC50 of IP200 (Fc fusion) YSQGTFTSDYSKILEEEAVRLFIEWLVKGPAAAGGSGSTASSGSGSATGGGGAATHTCPPCPAPEF : 0.12

Looking up IP379 (Fc fusion) YSEGTHTSDFSKLLEEEAVRLFIEWLLAGGGGGGSGGGGSGGGGSGGGGSATHTCPPC , I see its cAMP EC50 listed as 0.84

Recorded result, IP286 (Fc fusion) YSEGTFTSDYSKLLEEEAVRLFIEWLVKGPGGGGGGGGGGGGGGGGGGGGGGGGGGGATHTCPPC , cAMP EC50: 0.072

The binder IP279 (Fc fusion) YSEGTFTSDYSKLLEEEAVRLFIEWLVKGPSSGAPPPSGGGGGSGGGGSGGGGSGGGGSATHTCPPC showed cAMP EC50 equal to 0.1

cAMP EC50 in this record for IP237 (Fc fusion) YSEGTFTSDYSKLLEEEAVRLFIEWLVKGPGGGGGSGGGGSGGGGSGGGGSATHTCPPCPAPEF : 0.095
